- Test system: CCRF-CEM
- test_description: NCI tumour cell line growth inhibition, 48 h
The source made the active and inactive calls. Cut-off read from the data, not from the text of the source: active = GI50 up to about 1.1 µM and inactive = higher.
Lab note: assign the record to one of 1 for active, 0 for inactive

Record lookup: outcome of this test for O=C(O)Cn1c(=O)[nH]c(=O)c2[nH]cnc21 ?
0

Record lookup: outcome of this test for O=C1CC(c2ccc(Cl)cc2)C2(C(=O)NC(=O)NC2=O)C(c2ccc(Cl)cc2)C1 (stereo not drawn) ?
0

Record lookup: outcome of this test for COc1ccccc1Nc1nc2c([nH]1)c(=O)n(C)c(=O)n2C ?
0

Record lookup: outcome of this test for CC1(C)N=C(/C(Cl)=[N+](/[O-])C(=O)c2ccc(Cl)cc2)C(C)(C)N1O ?
0

Record lookup: outcome of this test for CC(C)=CCN=C(N)N ?
0

Record lookup: outcome of this test for CC1=C(C(=O)OCCO[N+](=O)[O-])C(c2cccc([N+](=O)[O-])c2)C(C(=O)OC(C)C)=C(C)N1 (stereo not drawn) ?
0

Record lookup: outcome of this test for CC(C)/C=C1\CCC(CN(C)C)C1=O (stereo not drawn) ?
0

Record lookup: outcome of this test for COc1ccc(N[S+]([O-])c2cccc(C)c2)cc1 (stereo not drawn) ?
0

Record lookup: outcome of this test for O=[N+]([O-])c1cccnc1S(=O)(=O)c1ccccc1 ?
0

Record lookup: outcome of this test for OC(CCl)CN1CC[N+]2(CC1)CC[N+]1(CCN(CC(O)CCl)CC1)CC2 (stereo not drawn) [PROSPIDIUM CHLORIDE] ?
0

Record lookup: outcome of this test for CN(C)C(=S)/N=c1\ss/c(=N\C(=S)N(C)C)n1-c1ccc(Cl)c(Cl)c1 ?
0

Record lookup: outcome of this test for CC(CN1CC(=O)NC(=O)C1)N1CC(=O)NC(=O)C1 (stereo not drawn) [RAZOXANE] ?
0

Record lookup: outcome of this test for Cc1cc(N(C)c2ccccc2)nc(N(C)c2ccccc2)n1 ?
0

Record lookup: outcome of this test for CCOC(=O)c1cn2c(n1)sc1cc(C)c(C)cc12 ?
0

Record lookup: outcome of this test for Cn1c(C(O)C2(c3cccnc3)SCCCS2)cc2ccccc21 (stereo not drawn) ?
0

Record lookup: outcome of this test for COc1ccc(/C=N/Nc2nc(=S)[nH]c3[nH]ncc23)cc1 ?
0

Record lookup: outcome of this test for O=C1OC(c2ccccc2)=N/C1=C\c1ccc2ccccc2c1 ?
0

Record lookup: outcome of this test for Cc1cccc(C)c1NC(=O)/C(CC(=O)CC(c1ccccc1)c1c(O)c2ccccc2oc1=O)=N/O (stereo not drawn) ?
0

Record lookup: outcome of this test for Cc1nc(-c2nc(C)c(C(=O)NNC(=O)C[n+]3ccccc3)s2)sc1C(=O)NNC(=O)C[n+]1ccccc1 ?
0

Record lookup: outcome of this test for COc1ccc(/C(Cl)=C(\CN(C)C)c2ccc(OC)c(OC)c2)cc1OC ?
0

Record lookup: outcome of this test for O=C1/C(=C\c2ccccc2)C2/C(=C\c3ccccc3)C(=O)/C(=C\c3ccccc3)C2/C1=C\c1ccccc1 (stereo not drawn) ?
1

Record lookup: outcome of this test for CC(C)=Cc1cc(C)c2c(O)cc(C)c3c2c1C(C)=C(O)C3=O ?
1

Record lookup: outcome of this test for NCCCCN(CCCN)/[N+]([O-])=N\O ?
0

Record lookup: outcome of this test for Cc1ccnc2c1C(=O)C1=C(OC(C)(C)CC1O)C2=O (stereo not drawn) ?
0

Record lookup: outcome of this test for C=CCCC(On1c(-c2ccc(Cl)cc2)csc1=S)c1ccccc1 (stereo not drawn) ?
0

Record lookup: outcome of this test for Cc1ccc(NC(=O)CSc2nnc(-c3ccc(/N=C\c4ccc(Cl)cc4)cc3)o2)cc1 ?
0

Record lookup: outcome of this test for c1ccc2c(CNCCCCCCCCNCc3cccc4ccccc34)cccc2c1 ?
0

Record lookup: outcome of this test for NCCCC1NC(=O)/C(=C(O)/C=C/C2CCC[C@@H]2CC2SCCS2)C1=O (stereo partly drawn) ?
0

Record lookup: outcome of this test for CN(C)CCn1c(=O)c2ccc(NCCN3CCNCC3)c3c(=O)c4ccccc4n(c1=O)c23 ?
1

Record lookup: outcome of this test for Cc1ccc(C)c(NC(=O)CCC(=O)CC(=O)C(C)(C)C)c1 ?
0

Record lookup: outcome of this test for NC(=S)Nc1c(S(N)(=O)=O)cc(S(N)(=O)=O)c(Cl)c1Cl ?
0

Record lookup: outcome of this test for CCCCCCCCCCCCCP(=O)(O)OCC ?
0

Record lookup: outcome of this test for Cc1cccc(/C=C2/C(=O)Nc3ccccc32)n1 ?
0

Record lookup: outcome of this test for Cc1[nH]n(C2=NCCN2)c(=O)c1C ?
0

Record lookup: outcome of this test for COc1c(O)cc(/C=C/c2cc(O)cc3c2[C@@]2(C(=O)O3)c3c(O)cc(O)cc3OC2c2cccc(O)c2)cc1O (stereo partly drawn) ?
0

Record lookup: outcome of this test for CCCCSC1=N/C(=C\c2ccco2)C(Cl)=N1 ?
0

Record lookup: outcome of this test for Nc1nc(N)c(CCCCc2ccc([N+](=O)[O-])cc2)c(N)n1 ?
0

Record lookup: outcome of this test for Nc1ccc2cc3ccc(N)cc3nc2c1 ?
1

Record lookup: outcome of this test for Cc1ccc(S(=O)(=O)N(CC(O)COc2ccccc2)c2c(F)cccc2F)cc1 (stereo not drawn) ?
0

Record lookup: outcome of this test for CCOC(=O)C1=CN(Cc2ccccc2)C2ON=C(c3ccc(Cl)cc3)C2C1 (stereo not drawn) ?
0

Record lookup: outcome of this test for CO/N=[N+](\[O-])NC(C)C ?
0

Record lookup: outcome of this test for COc1ccccc1CNC(=O)[C@H](Cc1ccc(O)cn1)NC(C)=O ?
0

Record lookup: outcome of this test for N#CC(c1ccccc1)N(CCOCCOCCN(C(=O)c1cccc2ccccc12)C(C#N)c1ccccc1)C(=O)c1cccc2ccccc12 (stereo not drawn) ?
0

* * *

- Test system: HL-60
- test_description: NCI tumour cell line growth inhibition, 48 h
The source made the active and inactive calls. No stated cut-off is given here; in the data, active = GI50 up to about 1.1 µM and inactive = higher.
Lab note: assign the record to one of active, inactive

Record lookup: outcome of this test for O=C(c1ccccn1)c1nc(-c2ccc(Cl)c(Cl)c2)nc2ccc(Cl)cc12 ?
inactive

Record lookup: outcome of this test for COc1ccccc1CNC(=O)[C@H](Cc1ccc(O)cn1)NC(C)=O ?
inactive

Record lookup: outcome of this test for CCC1(CC)C(=O)N(C(=O)c2ccccc2)N(C(=O)c2ccc(Cl)cc2)C1=O ?
inactive

Record lookup: outcome of this test for COC1=C(Cl)C(=O)c2c(O)ccc(O)c2C1=O ?
active

Record lookup: outcome of this test for COc1ccc2c(c1)CCc1c-2nc2cc3c(cc2c1O)OCO3 ?
inactive

Record lookup: outcome of this test for COc1ccc([C@H]2c3cc4c(cc3OC(O)(CO)[C@H]2C(=O)O)OCO4)c(OC)c1.COc1ccc([C@H]2c3cc4c(cc3OC3(O)COC(=O)[C@@H]23)OCO4)c(OC)c1 (stereo partly specified) ?
inactive

Record lookup: outcome of this test for S=c1sc2c(s1)SC(c1ccccc1)CS2 (stereo unspecified) ?
inactive

Record lookup: outcome of this test for N=C(N)NNC(=O)CCn1[nH]c(=O)c(Cl)c(Cl)c1=O ?
inactive

Record lookup: outcome of this test for [O-][S+](CC1(O)CCCCC1)c1ccccc1 (stereo unspecified) ?
inactive

Record lookup: outcome of this test for CC(C)=Cc1cc(C)c2c(O)cc(C)c3c2c1C(C)=C(O)C3=O ?
inactive

Record lookup: outcome of this test for CNC(=O)OCC1=C(COC(=O)NC)CN(c2ccc(OC)cc2)C1 ?
inactive

Record lookup: outcome of this test for COc1ccc(/N=C2\C(=N/c3ccc(OC)cc3)N(c3ccc(N(C)C)cc3)C(=S)N2c2ccc(OC)cc2)cc1 ?
inactive

Record lookup: outcome of this test for CSc1nc(NC2OCC(OC(C)=O)C(OC(C)=O)C2OC(C)=O)c(/N=C(\C)C(C)=O)c(=O)[nH]1 (stereo unspecified) ?
inactive

Record lookup: outcome of this test for Cc1cccc(/C=C2/C(=O)Nc3ccccc32)n1 ?
inactive

Record lookup: outcome of this test for O=C(CC1=Nc2nnc(CCCCCCCc3nnc4n3C(=O)C(CC(=O)c3ccccc3)=N4)n2C1=O)c1ccccc1 ?
inactive

Record lookup: outcome of this test for COc1ccccc1Nc1nc2c([nH]1)c(=O)n(C)c(=O)n2C ?
inactive

Record lookup: outcome of this test for COC(=O)c1ccccc1C1CN=NC12Cc1ccc(C)c(C)c1C2=O (stereo unspecified) ?
inactive

Record lookup: outcome of this test for COC(=O)CSc1ccccc1 ?
inactive

Record lookup: outcome of this test for Clc1nc(Nc2nc3ccccc3[nH]2)nc(Cl)c1-c1ccccc1 ?
inactive

Record lookup: outcome of this test for CC(/C=C/c1ccccc1)=N\NC(N)=S ?
inactive

Record lookup: outcome of this test for O=C(Nc1ccc2[nH]c3c(-c4ccccc4)nccc3c2c1)c1ccccc1[N+](=O)[O-] ?
inactive

* * *

- System: SF-295
- test_description: NCI tumour cell line growth inhibition, 48 h
Active and inactive are the calls of the source. No stated cut-off is given here; in the data, active = GI50 up to about 1.1 µM and inactive = higher.
Lab note: assign the record to one of active, inactive

Record lookup: outcome of this test for O=C(Cc1ccccc1CCO)NCCc1ccccc1 ?
inactive

Record lookup: outcome of this test for CCCCOC1CC2(c3ccc(OC)cc3)C(=O)c3ccccc3N2O1 (stereo not given) ?
inactive

Record lookup: outcome of this test for O=C(O)C(Cc1ccccc1)NCc1c(O)ccc2c(-c3ccccc3)cc(=O)oc12 (stereo not given) ?
inactive

Record lookup: outcome of this test for CN(C)CCCNc1ccnc2cc([N+](=O)[O-])ccc12 ?
inactive

Record lookup: outcome of this test for COc1cc([C@@H]2c3cc4c(cc3[C@@H](NCCCN(C)C)[C@H]3COC(=O)[C@H]23)OCO4)cc(OC)c1O ?
active
